Origin of values: ChEMBL document CHEMBL1909046

- Measured Target: 5-hydroxytryptamine receptor 1B (Rattus norvegicus); further: in other assays of this panel Not Active means under 50% inhibition at 10 µM
- Sequence (P28564 whole entry): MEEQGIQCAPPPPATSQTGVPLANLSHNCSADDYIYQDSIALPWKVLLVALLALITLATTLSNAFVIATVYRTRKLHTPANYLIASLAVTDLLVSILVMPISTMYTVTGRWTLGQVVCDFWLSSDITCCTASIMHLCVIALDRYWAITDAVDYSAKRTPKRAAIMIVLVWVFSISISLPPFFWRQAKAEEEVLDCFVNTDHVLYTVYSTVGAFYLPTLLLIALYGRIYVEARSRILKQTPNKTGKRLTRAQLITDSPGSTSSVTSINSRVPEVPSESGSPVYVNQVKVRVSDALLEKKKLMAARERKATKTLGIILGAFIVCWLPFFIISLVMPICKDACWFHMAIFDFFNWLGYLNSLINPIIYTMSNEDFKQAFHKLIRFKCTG
- Format: cell membranes, Wistar, Cerebral cortex, Membrane
Observable: IC50

Example compounds with recorded IC50:
Compound	IC50
COc1c(N2CCNC(C)C2)c(F)cc2c(=O)c(C(=O)O)cn(C3CC3)c12 (configuration not stated)	Not Active
CC(C)(C)NCC(O)c1cc(O)cc(O)c1 (configuration not stated)	Not Active
O=[N+]([O-])c1cc([As](=O)(O)O)ccc1O	Not Active
Nc1nnc(-c2cccc(Cl)c2Cl)c(N)n1	Not Active
CCOC(=O)[C@H](CCc1ccccc1)N[C@@H](C)C(=O)N1[C@H](C(=O)O)C[C@@H]2CCC[C@@H]21	Not Active
COS(C)(=O)=O	Not Active
CC(=O)O[C@]1(C(C)=O)CC[C@H]2[C@@H]3C=C(Cl)C4=CC(=O)CC[C@]4(C)[C@H]3CC[C@@]21C [CHLORMADINONE ACETATE]	Not Active
CC1(C)[C@@H](O[C@H]2O[C@H](C(=O)O)[C@@H](O)[C@H](O)[C@H]2O[C@@H]2O[C@H](C(=O)O)[C@@H](O)[C@H](O)[C@H]2O)CC[C@]2(C)[C@H]3C(=O)C=C4[C@@H]5C[C@@](C)(C(=O)O)CC[C@]5(C)CC[C@@]4(C)[C@]3(C)CC[C@@H]12	Not Active
N=C(N)NCCCCNC(=N)N.O=S(=O)(O)O [ARCAINE SULFATE]	Not Active
c1ccc2c(c1)cc1ccc3cccc4ccc2c1c34	Not Active

Which IC50 value belongs to Oc1c(I)cc(I)c2cccnc12 ?
Not Active

Which IC50 value belongs to COc1c(C)c2c(c(O)c1C/C=C(\C)CCC(=O)OCCN1CCOCC1)C(=O)OC2 [MYCOPHENOLATE MOFETIL] ?
Not Active

Which IC50 value belongs to NC(CO)(CO)CO ?
Not Active

Which IC50 value belongs to CCc1cccc2c3c([nH]c12)C(CC)(CC(=O)O)OCC3 (configuration not stated) ?
Not Active

Which IC50 value belongs to CC(C)(C)NCC(O)c1ccc(O)c(CO)c1 (configuration not stated) ?
Not Active

Which IC50 value belongs to COC(=O)C1=C(C)NC(C)=C(C(=O)OC)C1c1ccccc1[N+](=O)[O-] ?
Not Active

Which IC50 value belongs to Nc1nc2c(ncn2COC(CO)CO)c(=O)[nH]1 ?
Not Active
